Exercise: state measured IC50 for each of the compounds provided.
- measurement target: cyclin D1/cdk 4 enzyme (Homo sapiens)
- Construct: made in house; host or cells: Sf9 insect cells, recombinant baculovirus
- Sequence (P11802 whole entry, species assumed): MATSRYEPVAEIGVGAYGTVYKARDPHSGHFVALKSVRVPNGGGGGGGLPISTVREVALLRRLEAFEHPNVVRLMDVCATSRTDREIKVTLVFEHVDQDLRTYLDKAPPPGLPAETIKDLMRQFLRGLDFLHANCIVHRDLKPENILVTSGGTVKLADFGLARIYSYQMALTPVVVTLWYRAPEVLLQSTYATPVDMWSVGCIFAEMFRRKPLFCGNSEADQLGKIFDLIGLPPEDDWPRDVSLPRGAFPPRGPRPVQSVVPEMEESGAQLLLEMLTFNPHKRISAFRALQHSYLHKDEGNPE
- Sequence (P24385 whole entry partner, species assumed): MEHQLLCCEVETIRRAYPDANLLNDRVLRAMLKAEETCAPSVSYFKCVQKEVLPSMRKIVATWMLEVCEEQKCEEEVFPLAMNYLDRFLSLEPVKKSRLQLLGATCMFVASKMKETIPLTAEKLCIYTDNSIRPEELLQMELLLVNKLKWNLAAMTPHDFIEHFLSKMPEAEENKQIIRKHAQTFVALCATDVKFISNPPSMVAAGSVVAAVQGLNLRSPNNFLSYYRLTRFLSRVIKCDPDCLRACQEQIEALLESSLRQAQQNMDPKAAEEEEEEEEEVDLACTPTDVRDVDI
- protocol text: CDK4 ELISA kinase assay (phospho-Rb ser 795 detection)
- Assay type: biochemical
- particulars: In Vitro Enzyme Assay, cyclin D1/cdk 4, read-out: CDK4 IC50
One number for each entry, in µM.

Hi team, please reply with IC50 for each item in this list.
1. CCCOc1ccc(CN/C=C2\C(=O)NC(=O)c3ccc(-c4ccoc4)cc32)cc1O
2. O=C1NC(=O)c2ccc(I)cc2/C1=C/NCc1cc(O)c(-c2ccoc2)cc1F
3. Cc1ccc(-c2ccc3c(c2)C(=CNc2ccc(N4CCN(C)CC4)cc2)C(=O)NC3=O)cc1

Response given:
1. 0.06
2. 0.01
3. 30.7

Hi team, please reply with IC50 for each item in this list.
1. Cc1cccc(-c2ccc3c(c2)C(=CNc2ccc(CC#N)cc2)C(=O)NC3=O)c1
2. N=C(N)c1ccc(NC=C2C(=O)NCc3cc(Cl)ccc32)cc1
3. COc1ccccc1-c1ccc2c(c1)C(=CNc1ccc(CC#N)cc1)C(=O)NC2=O
4. NS(=O)(=O)c1ccc(CNC=C2C(=O)NC(=O)c3ccc(-c4ccc[nH]4)cc32)cc1
5. CSc1ccc(-c2ccc3c(c2)C(=CNc2ccc(N4CCN(C)CC4)cc2)C(=O)NC3=O)cc1

Response given:
[9.3, 18.5, 18.5, 0.05, 45]

---

- measurement target: cyclin B/CDK1 enzyme (Homo sapiens, UniProt P06493)
- Construct: purchased New England BioLabs; host or cells: Sf9 insect cells, recombinant baculovirus
- Sequence (P06493 whole entry): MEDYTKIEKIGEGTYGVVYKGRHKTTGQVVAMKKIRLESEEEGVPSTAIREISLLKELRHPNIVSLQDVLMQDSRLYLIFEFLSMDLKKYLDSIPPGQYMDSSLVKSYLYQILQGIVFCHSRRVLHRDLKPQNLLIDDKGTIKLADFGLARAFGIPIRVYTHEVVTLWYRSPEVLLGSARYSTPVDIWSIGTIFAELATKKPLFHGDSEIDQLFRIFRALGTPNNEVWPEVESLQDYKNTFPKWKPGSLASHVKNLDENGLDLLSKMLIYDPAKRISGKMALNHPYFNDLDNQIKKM
- Sequence (P14635 whole entry partner): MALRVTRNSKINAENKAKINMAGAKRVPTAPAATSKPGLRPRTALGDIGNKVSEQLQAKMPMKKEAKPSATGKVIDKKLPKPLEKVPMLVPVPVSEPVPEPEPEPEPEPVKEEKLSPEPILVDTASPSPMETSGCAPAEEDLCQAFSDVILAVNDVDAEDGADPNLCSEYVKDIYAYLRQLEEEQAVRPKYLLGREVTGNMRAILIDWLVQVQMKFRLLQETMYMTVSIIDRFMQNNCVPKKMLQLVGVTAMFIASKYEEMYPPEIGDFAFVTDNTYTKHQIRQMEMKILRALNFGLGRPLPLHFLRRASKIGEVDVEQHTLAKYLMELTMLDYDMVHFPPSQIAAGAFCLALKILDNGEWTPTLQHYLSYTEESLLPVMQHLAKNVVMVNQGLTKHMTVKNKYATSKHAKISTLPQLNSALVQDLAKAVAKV
- protocol text: CDK1 ELISA kinase assay (phospho-Rb ser 795 detection)
- Format: biochemical
- particulars: In Vitro Enzyme Assays, read-out: CDK1 IC50
readout name: IC50

Answered examples (8):
• CCC(=O)Nc1ccc(CN/C=C2\C(=O)NC(=O)c3ccc(I)cc32)cc1O = 3.1 µM
• COc1ccc(-c2ccc3c(c2)/C(=C/Nc2cnc(N4C[C@@H](C)N[C@@H](C)C4)c(C)c2)C(=O)NC3=O)cc1 = > 50 µM
• CN(C)NC(=O)Cc1ccc(N/C=C2\C(=O)NC(=O)c3ccc(Br)cc32)cc1 = > 50 µM
• COc1ccc(CN/C=C2\C(=O)NC(=O)c3ccc(-c4cccc(F)c4)cc32)cc1O = > 50 µM
• CCC1CCCN1Cc1ccc(N/C=C2\C(=O)NC(=O)c3ccc(I)cc32)cc1 (centres unmarked) = > 50 µM
• O=C1NC(=O)c2ccc(Br)cc2/C1=C/c1cc(Br)c(O)c(Br)c1 = > 50 µM
• O=C1NC(=O)c2ccc(I)cc2/C1=C/NCc1ccc(OC(F)F)c(O)c1 = 16.5 µM
• O=C1NC(=O)c2ccc(-c3ccsc3)cc2/C1=C/NCc1ccc(OC(F)F)c(O)c1 = > 50 µM

Hi team, please reply with IC50 for each item in this list.
1. O=C1NC(=O)c2ccc(Br)cc2/C1=C/Nc1ccc(O)c(C(=O)O)c1
2. CN(C)CCSc1ccc(N/C=C2\C(=O)NC(=O)c3ccc(Br)cc32)cc1
3. O=C1NC(=O)c2ccc(-c3cccnc3)cc2/C1=C/Nc1ccc(CN2CCCCC2)cc1
4. C[C@@H]1CN(c2cncc(N/C=C3\C(=O)NC(=O)c4ccc(-c5ccoc5)cc43)c2)C[C@H](C)N1
5. CN1CCN(c2ccc(N/C=C3\C(=O)NC(=O)c4ccc(-c5ccc(C#N)cc5)cc43)cc2)CC1
6. CN(C)CCS(=O)(=O)c1ccc(N/C=C2\C(=O)NC(=O)c3ccc(Br)cc32)cc1

Response given:
1: 31.8 µM; 2: > 50 µM; 3: > 50 µM; 4: > 50 µM; 5: 4.3 µM; 6: 12.3 µM

Hi team, please reply with IC50 for each item in this list.
1. CN1CCN(c2ccc(N/C=C3\C(=O)NC(=O)c4ccc(C(=O)N(C)C)cc43)cc2)CC1
2. O=C1NC(=O)c2ccc(Br)cc2/C1=C/NCc1ccc(OCCO)c(O)c1
3. CN(C)CC1CCCN1c1ccc(N/C=C2\C(=O)NC(=O)c3ccc(I)cc32)cc1F (centres unmarked)
4. COc1ccc(-c2ccc3c(c2)/C(=C/Nc2ccc(N4CCN(C)CC4)cc2)C(=O)NC3=O)cc1
5. COc1ccc(-c2ccc3c(c2)/C(=C/Nc2ccc(CN4CCCCC4)cc2)C(=O)NC3=O)cc1
6. O=C1NC(=O)c2ccc(Br)cc2/C1=C/NCc1ccc(OCc2ccccc2)c(O)c1

Response given:
["> 50 µM", "> 50 µM", "> 50 µM", "> 50 µM", "> 50 µM", "> 50 µM"]

Hi team, please reply with IC50 for each item in this list.
1. CN1CCN(CCCNC=C2C(=O)NC(=O)c3ccc(-n4cccc4)cc32)CC1
2. CC(c1ccc(N/C=C2\C(=O)NC(=O)c3ccc(I)cc32)cc1)N1CCCC1 (centres unmarked)
3. COC1CCN(Cc2ccc(N/C=C3\C(=O)NC(=O)c4ccc(Br)cc43)cc2)CC1
4. O=C1NC(=O)c2ccc(-c3cccs3)cc2/C1=C/Nc1ccc(CN2CCC[C@H]2CO)cc1 (stereo in doubt)
5. CCCCCCOc1ccc(CN/C=C2\C(=O)NC(=O)c3ccc(Br)cc32)cc1O

Response given:
1. > 50 µM
2. > 50 µM
3. > 50 µM
4. > 50 µM
5. > 50 µM

Hi team, please reply with IC50 for each item in this list.
1. CCCOc1ccc(CN/C=C2\C(=O)NC(=O)c3ccc(NC(=O)c4ccco4)cc32)cc1O
2. C/C=C(\C)C(=O)Nc1ccc(CN/C=C2\C(=O)NC(=O)c3ccc(I)cc32)cc1O

Response given:
1: > 50 µM; 2: > 50 µM

Hi team, please reply with IC50 for each item in this list.
1. O=C1NC(=O)c2ccc(Br)cc2/C1=C/NCc1cc(O)cc(O)c1
2. COc1ccc(C(=O)NN/C=C2\C(=O)NC(=O)c3ccc(Br)cc32)cc1O
3. C[C@@H]1CN(c2ccc(N/C=C3\C(=O)NC(=O)c4ccc(Br)cc43)cc2)C[C@H](C)N1C
4. COc1ccc(-c2ccc3c(c2)/C(=C/Nc2ccc(N4C[C@@H](C)N[C@@H](C)C4)c(F)c2)C(=O)NC3=O)cc1
5. CC(N)(C(=O)O)c1ccc(NC=C2C(=O)NC(=O)c3ccc(Br)cc32)cc1 (centres unmarked)

Response given:
1: 16.5 µM; 2: > 50 µM; 3: > 50 µM; 4: 28.3 µM; 5: > 50 µM

---

- Tested on: LoVo
- protocol text: Cytotoxicity assay (SRB), LoVo
- Format: cell-based
- particulars: Homo sapiens, LoVo, 72 h, LoVo cells, SRB, three days; read-out: In Vitro Cellular Activity IC50 LOVO
Exercise: state measured IC50 for each of the molecules provided.
Answers are plain numbers, in µM.

Answered examples (5):
- CN1CCN(c2ccc(NC=C3C(=O)NC(=O)c4ccc(OCCN5CCOCC5)cc43)cc2)CC1: 19
- COCCOc1ccc(CN/C=C2\C(=O)NC(=O)c3ccc(Br)cc32)cc1O: 30
- O=C1NC(=O)c2ccc(-c3ccoc3)cc2/C1=C/Nc1ccc(CN2CCCCC2)cc1: 1.8
- O=C1NC(=O)c2ccc(Br)cc2C1=CNCc1cc(=O)c(O)co1: 41
- CONCCCc1ccc(N/C=C2\C(=O)NC(=O)c3ccc(Br)cc32)cc1: 12.5

Hi team, please reply with IC50 for each item in this list.
1. CN(C)C/C=C/C(=O)Nc1ccc(CN/C=C2\C(=O)NC(=O)c3ccc(I)cc32)cc1O
2. COc1ccc(CN/C=C2\C(=O)NC(=O)c3ccc(-c4cn[nH]c4)cc32)cc1O
3. COC(=O)Oc1ccc(CN/C=C2\C(=O)NC(=O)c3ccc(Br)cc32)cc1OC(=O)OC

Response given:
1. 0.34
2. 36
3. 5.9

---

- System: HCT-116
- protocol text: Cytotoxicity assay (SRB), HCT-116
- Assay type: cell-based
- particulars: Homo sapiens, HCT-116, 72 h, HCT116 cells, 3 days, SRB; read-out: In Vitro Cellular Activity IC50 HCT116
Threshold check on IC50: strictly below 10 µM is MET; on or above 10 µM is NOT MET.

Some entries whose results are on file:
• N#CCc1ccc(NC=C2C(=O)NC(=O)c3ccc(C=Cn4ccnc4)cc32)cc1 = NOT MET
• CN1CCN(c2ccc(N/C=C3\C(=O)NC(=O)c4ccc(-c5coc(CN6CCCC6)c5)cc43)nc2)CC1 = MET
• O=C1NC(=O)c2ccc(-c3ccc(Cl)cc3)cc2C1=CNCc1ccc(O)c(O)c1 = NOT MET
• COc1ccc(CNC=C2C(=O)NC(=O)c3ccc(-c4ccc[nH]4)cc32)cc1O = NOT MET
• CC(C)N1CCN(c2ccc(N/C=C3\C(=O)NC(=O)c4ccc(I)cc43)cn2)CC1 = MET

Challenge: Does the reported IC50 of O=C1NC(=O)c2ccc(Br)cc2/C1=C/Nc1ccc(CN2CCC[C@H]2CO)cc1 (stereo in doubt) stay below 10 µM?
Response given: MET

Challenge: Does the reported IC50 of `O=C1NC(=O)c2ccc(-c3ccc(CO)cc3)cc2C1=CNCc1ccc(O)c(O)c1` stay below 10 µM?
Response given: NOT MET
